Assay: qHTS assay for identifying genotoxic compounds that show differential cytotoxicity against isogenic chicken DT40 cell lines with known DNA damage response pathways - Rad54/Ku70 mutant cell line (AID 743015); note: nearly all actives have a fitted effect of over 60% in size
Details: DT40 Rad54/Ku70 mutant viability, CellTiter-Glo, 40 h; series mostly up to 66.8 µM
Text: National Center for Advancing Translational Sciences [NCATS] NIH Chemical Genomics Center [NCGC] U.S. Environmental Protection Agency [EPA] National Institutes of Environmental Health Sciences [NIEHS] National Toxicology Program [NTP] U.S. Food and Drug Administration [FDA] DNA repair pathways play a critical role in cellular homeostasis by repairing DNA damage induced by endogenous processes and xenobiotics. […]
Inconclusive results are not listed. Activity calls are given as the source filed them. Calls come from the whole dose curve; as a rule, active = well fitted cell-killing curve with a large enough effect in the repeat runs; inconclusive = weak or mixed curves; inactive = no such curve, though single readings can be large or run the other way.
Outcome codes: Yes (active), No (inactive)

{"Compound": "C1=CCC2CC=CC2C1 (stereo not drawn)", "Cat": "No"}
{"Compound": "CC(C)(C)S", "Cat": "No"}
{"Compound": "O=C1c2ccccc2C(=O)c2c(O)ccc(O)c21", "Cat": "Yes"}
{"Compound": "O=C(O)CCS", "Cat": "No"}
{"Compound": "CC(=O)C(=O)CC(C)C", "Cat": "No"}
{"Compound": "CC(O)Cn1cnc2c1c(=O)n(C)c(=O)n2C (stereo not drawn)", "Cat": "No"}
{"Compound": "CC(C)Cc1ccc(CC(=O)O)cc1", "Cat": "No"}
{"Compound": "O=C(Oc1ccccc1)c1ccc2ccccc2c1O", "Cat": "Yes"}

====

molecular target: Cytochrome P450 2C19 (Homo sapiens) (UniProt P33261); assay: Cytochrome P450 Family 2 Subfamily C Member 19 (CYP2C19) small molecule antagonists: luciferase reporter qHTS assay (AID 1671197); settings: P450-Glo CYP2C19 enzyme, luciferin luminescence, 1 h; series mostly up to 115 µM; note: nearly all actives have a fitted effect of over 65% in size
Sequence (P33261 whole entry, looked up): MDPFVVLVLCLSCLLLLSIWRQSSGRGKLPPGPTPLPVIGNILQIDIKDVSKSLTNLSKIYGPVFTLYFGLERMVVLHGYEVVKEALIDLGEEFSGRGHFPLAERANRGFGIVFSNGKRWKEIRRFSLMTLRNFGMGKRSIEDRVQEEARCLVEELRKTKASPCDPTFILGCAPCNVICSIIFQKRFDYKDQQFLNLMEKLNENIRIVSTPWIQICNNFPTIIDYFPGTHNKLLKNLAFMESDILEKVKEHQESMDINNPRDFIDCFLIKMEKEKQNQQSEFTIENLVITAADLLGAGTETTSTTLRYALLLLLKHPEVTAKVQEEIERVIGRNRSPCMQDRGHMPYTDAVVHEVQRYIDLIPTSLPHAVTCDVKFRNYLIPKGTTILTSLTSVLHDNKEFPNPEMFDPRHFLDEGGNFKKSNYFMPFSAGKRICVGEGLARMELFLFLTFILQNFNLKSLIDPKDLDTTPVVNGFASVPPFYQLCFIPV
Inconclusive results are not listed. The source made the active and inactive calls. Calls follow the shape of the dose curve; as a rule, active = well fitted inhibition curve with a large enough effect in the repeat runs; inconclusive = weak or mixed curves; inactive = no such curve, though single readings can be large or run the other way.
Classes used: class 1 = active, class 0 = inactive

{"Compound": "CCCCCCCC/C=C\\CCCCCCCC(=O)OCCO", "Cat": "class 1"}
{"Compound": "CCCCCCC(O)CCOC(C)=O (configuration not stated)", "Cat": "class 1"}
{"Compound": "CCc1ccc(C)cc1", "Cat": "class 0"}
{"Compound": "CCC(=O)OCc1ccc(OC)cc1", "Cat": "class 1"}
{"Compound": "Cc1cc([N+](=O)[O-])ccc1N", "Cat": "class 1"}
{"Compound": "Nc1ccc(S(=O)(=O)NCc2ccccc2)cc1", "Cat": "class 1"}
{"Compound": "C=C(C)C(=O)OCCC(F)(F)C(F)(F)C(F)(F)C(F)(F)C(F)(F)C(F)(F)F", "Cat": "class 0"}
{"Compound": "Oc1ccc2c(c1)Cc1ccccc1-2", "Cat": "class 1"}
{"Compound": "O=CNNC=O", "Cat": "class 0"}
{"Compound": "O=P(O)(O)Oc1ccccc1", "Cat": "class 0"}
{"Compound": "Cc1ccc(S(=O)(=O)NC(=O)NC2CCCCC2)cc1", "Cat": "class 0"}
{"Compound": "COC(=O)Nc1nc2ccc(C(=O)C3CC3)cc2[nH]1", "Cat": "class 0"}
{"Compound": "CCN(CC)C(=O)N1CCN(C)CC1", "Cat": "class 0"}
{"Compound": "Cc1ccc(Nc2c(F)cccc2Cl)c(CC(=O)O)c1", "Cat": "class 1"}
{"Compound": "CC1CCC(C(C)CS)CC1S (configuration not stated)", "Cat": "class 0"}
{"Compound": "O=[N+]([O-])C1(Br)COCOC1", "Cat": "class 1"}
{"Compound": "[Cl][Nd]([Cl])[Cl]", "Cat": "class 0"}
{"Compound": "FC(F)(F)C(F)(F)C(F)(F)C(F)(F)CCI", "Cat": "class 0"}
{"Compound": "c1ccc2sc(SSc3nc4ccccc4s3)nc2c1", "Cat": "class 1"}
{"Compound": "O=C(O)CO", "Cat": "class 0"}
{"Compound": "c1ccc(CCCc2ccncc2)cc1", "Cat": "class 1"}
{"Compound": "O=C1CC[C@@H](C(=O)O)N1", "Cat": "class 0"}
{"Compound": "CC(C)CC(O)CC(C)C", "Cat": "class 0"}
{"Compound": "Cc1ccc2c(c1)CCCN2", "Cat": "class 1"}
{"Compound": "Cc1cn([C@H]2C[C@H](F)[C@@H](CO)O2)c(=O)[nH]c1=O", "Cat": "class 0"}
{"Compound": "CC(C)(O)CCc1ccccc1", "Cat": "class 1"}
{"Compound": "CCCCCCC(O)CCCCCCCCCCC(=O)OC (configuration not stated)", "Cat": "class 0"}
{"Compound": "CNS(=O)(=O)c1cc(C(=O)N2CCC(CCN3C4CCC3CC(n3c(C)nc5ccccc53)C4)(c3cccc(F)c3)CC2)c(Cl)cc1F (configuration not stated)", "Cat": "class 1"}
{"Compound": "O=c1[nH][nH]c(=O)c2cc([N+](=O)[O-])ccc12", "Cat": "class 0"}
{"Compound": "CCOC(=O)Oc1ccc(CCNC(=O)[C@H](CCSC)NC(C)=O)cc1OC(=O)OCC", "Cat": "class 0"}
{"Compound": "C[C@H](CS)C(=O)N1CCC[C@H]1C(=O)O", "Cat": "class 1"}
{"Compound": "CC(=O)c1ccc[nH]1", "Cat": "class 0"}
{"Compound": "CC[C@@H](CO)NCCN[C@@H](CC)CO", "Cat": "class 0"}
{"Compound": "CC(=O)NCCO", "Cat": "class 0"}
{"Compound": "C[C@@H]1[C@H](O)[C@@H](C)/C=C/C=C\\C=C\\C=C\\C=C\\C=C\\C=C\\[C@H](O[C@@H]2O[C@H](C)[C@@H](O)[C@H](N)[C@@H]2O)C[C@@H]2O[C@](O)(C[C@@H](O)C[C@@H](O)[C@H](O)CC[C@@H](O)C[C@@H](O)CC(=O)O[C@H]1C)C[C@H](O)[C@H]2C(=O)O (stereo in doubt)", "Cat": "class 0"}
{"Compound": "O=S(=O)(O)CO", "Cat": "class 1"}
{"Compound": "CCC(CO)(CO)CO", "Cat": "class 0"}
{"Compound": "CCCCC(CC)COS(=O)(=O)O (configuration not stated)", "Cat": "class 0"}
{"Compound": "COC1CCC=CO1 (configuration not stated)", "Cat": "class 0"}
{"Compound": "CC(=O)OCCC(C)CC(C)(C)C (configuration not stated)", "Cat": "class 0"}
{"Compound": "Nc1nc(-c2ccc([N+](=O)[O-])cc2)cs1", "Cat": "class 1"}
{"Compound": "CC(C)COC(=O)c1ccc(O)cc1", "Cat": "class 1"}

Sourced from PubChem BioAssay (Tox21)
